Source of measurements: the supplement of paper PMC10412459

Test system: K562 SF3B1 K700E vs K562 SF3B1 WT
method description: surviving fraction ratio K562 SF3B1 K700E / K562 SF3B1 WT (each relative to DMSO); higher = less selective killing of SF3B1 K700E cells
test settings: 500nM; 5 days
metric: surviving fraction ratio K562 SF3B1 K700E / K562 SF3B1 WT
// return a plain number; no unit text

Summary for this compound, C[C@@H](Oc1cc(-c2cnn(C3CCNCC3)c2)cnc1N)c1c(Cl)ccc(F)c1Cl : surviving fraction ratio K562 SF3B1 K700E / K562 SF3B1 WT is 1.17

Summary for this compound, CNC(=O)c1ccc(N2C(=S)N(c3ccc(C#N)c(C(F)(F)F)c3)C(=O)C2(C)C)cc1F : surviving fraction ratio K562 SF3B1 K700E / K562 SF3B1 WT is 0.769

Summary for this compound, CC(=O)O[C@H]1C(=O)[C@@]2(C)[C@H]([C@H](OC(=O)c3ccccc3)[C@]3(O)C[C@H](OC(=O)[C@H](O)[C@@H](NC(=O)c4ccccc4)c4ccccc4)C(C)=C1C3(C)C)[C@]1(OC(C)=O)CO[C@@H]1C[C@@H]2O [paclitaxel] : surviving fraction ratio K562 SF3B1 K700E / K562 SF3B1 WT is 3

Summary for this compound, COc1ccc(C2=N[C@@H](c3ccc(Cl)cc3)[C@@H](c3ccc(Cl)cc3)N2C(=O)N2CCNC(=O)C2)c(OC(C)C)c1 [Nutlin3] : surviving fraction ratio K562 SF3B1 K700E / K562 SF3B1 WT is 0.767

Summary for this compound, O=C(O)CC[C@H]1CC[C@@](c2cc(F)ccc2F)(S(=O)(=O)c2ccc(Cl)cc2)CC1 : surviving fraction ratio K562 SF3B1 K700E / K562 SF3B1 WT is 0.932

Summary for this compound, NS(=O)(=O)OC[C@@H]1C[C@@H](n2ccc3c(N[C@H]4CCc5ccccc54)ncnc32)C[C@@H]1O : surviving fraction ratio K562 SF3B1 K700E / K562 SF3B1 WT is 1.22

Summary for this compound, C[C@H](CN(C)C)Oc1nc(Nc2cc3cccc(Cl)c3cn2)cnc1C#N : surviving fraction ratio K562 SF3B1 K700E / K562 SF3B1 WT is 0.497

Summary for this compound, CN1CC[C@H](c2c(O)cc(O)c3c(=O)cc(-c4ccccc4Cl)oc23)[C@H](O)C1 [Flavopiridol] : surviving fraction ratio K562 SF3B1 K700E / K562 SF3B1 WT is 1.89
